growth inhibition listing for selected molecules.
# EXPERIMENT: NCI Yeast Anticancer Drug Screen. Data for the mec2-1 strain (AID 157)
# CONDITION SUMMARY: S. cerevisiae mec2-1 strain, at 50.0 µM, hits give high values
Compounds without any hit were thinned out: in the full panel of roughly 79,000, 15% have a hit.
Field: numeric (%). Do not append units.

Reference set, count: 4
{"MOLECULE": "Nc1cccc(Cl)c1C(=O)O", "UNITS TEXT": "%", "growth inhibition": -30.2}
{"MOLECULE": "CC(=O)O.Cl.NC1C([O-])OC(CO)C(O)C1O.O=C1OC(C(O)CO)C([O-])=C1[OH2+].[Cu+2] (stereo not given)", "UNITS TEXT": "%", "growth inhibition": 8.3}
{"MOLECULE": "N#CC(C#N)=CNC(N)=S", "UNITS TEXT": "%", "growth inhibition": -8.75}
{"MOLECULE": "C[C@]12CCC[C@H](O)[C@H]1O2", "UNITS TEXT": "%", "growth inhibition": 3.25}

[in] Item under review: COc1ccc(C)c(C2=CCCCC2)c1 . Reported growth inhibition?
[out] 3.45

[in] Item under review: O=c1cc(C=Nc2ccc(-c3csc(-c4ccccc4)n3)cc2)[nH]c(=S)[nH]1 . Reported growth inhibition?
[out] 91.2

[in] Item under review: CCOC(=O)C(C(=O)CC(C)C)C(C)C (stereo not given) . Reported growth inhibition?
[out] -25.2

[in] Item under review: CCC(=O)C(OC(C)=O)C(OC(C)=O)C(OC(C)=O)C(COC(C)=O)OC(C)=O (stereo not given) . Reported growth inhibition?
[out] -1.15

[in] Item under review: Nc1ccccc1SC1CC(=O)N(c2ccc(Br)cc2)C1=O (stereo not given) . Reported growth inhibition?
[out] 3.4
